From: paper PMC11672400

METHOD SUMMARY: MTT cell viability / cytotoxicity on normal fibroblasts
Format: cell-based, mouse
MEASUREMENT CONTEXT: mouse, NCTC clone 929 (L929) mouse fibroblast cells, 6.25 µg/mL, 48h
# viability at 48 h, 6.25 µg/mL per entry
QUANTITY MEASURED: viability at 48 h, 6.25 µg/mL

SMILES STRUCTURE: Cc1nn(CNc2ccc(Cl)cc2)c(C)c1[N+](=O)[O-]
QUANTITY MEASURED: viability at 48 h, 6.25 µg/mL
ENDPOINT VALUE: 93%

SMILES STRUCTURE: Cc1nn(CNc2ccc(Br)cc2)c(C)c1[N+](=O)[O-]
QUANTITY MEASURED: viability at 48 h, 6.25 µg/mL
ENDPOINT VALUE: 98.8%

SMILES STRUCTURE: Cc1nn(CNc2ccc(F)cc2)c(C)c1[N+](=O)[O-]
QUANTITY MEASURED: viability at 48 h, 6.25 µg/mL
ENDPOINT VALUE: 111%

SMILES STRUCTURE: Cc1nn(CNc2ccccc2Cl)c(C)c1[N+](=O)[O-]
QUANTITY MEASURED: viability at 48 h, 6.25 µg/mL
ENDPOINT VALUE: 106%

SMILES STRUCTURE: Cc1nn(CNc2ccc(I)cc2)c(C)c1[N+](=O)[O-]
QUANTITY MEASURED: viability at 48 h, 6.25 µg/mL
ENDPOINT VALUE: 96.3%

SMILES STRUCTURE: Cc1nn(CNc2cccc(Cl)c2)c(C)c1[N+](=O)[O-]
QUANTITY MEASURED: viability at 48 h, 6.25 µg/mL
ENDPOINT VALUE: 98.3%

----------
METHOD SUMMARY: MTT cell viability / cytotoxicity on normal fibroblasts
Type: cell-based, mouse
MEASUREMENT CONTEXT: mouse, NCTC clone 929 (L929) mouse fibroblast cells, 6.25 µg/mL, 24h
QUANTITY MEASURED: viability at 24 h, 6.25 µg/mL (%)

SMILES STRUCTURE: Cc1nn(CNc2ccc(Cl)cc2)c(C)c1[N+](=O)[O-]
ENDPOINT VALUE: 101

SMILES STRUCTURE: Cc1nn(CNc2ccc(I)cc2)c(C)c1[N+](=O)[O-]
ENDPOINT VALUE: 101

SMILES STRUCTURE: Cc1nn(CNc2ccccc2Cl)c(C)c1[N+](=O)[O-]
ENDPOINT VALUE: 108

SMILES STRUCTURE: Cc1nn(CNc2cccc(Cl)c2)c(C)c1[N+](=O)[O-]
ENDPOINT VALUE: 94.3

SMILES STRUCTURE: Cc1nn(CNc2ccc(Br)cc2)c(C)c1[N+](=O)[O-]
ENDPOINT VALUE: 97.1

SMILES STRUCTURE: Cc1nn(CNc2ccc(F)cc2)c(C)c1[N+](=O)[O-]
ENDPOINT VALUE: 99.3

----------
METHOD SUMMARY: MTT cell viability / cytotoxicity on normal fibroblasts
Assay type: cell-based, mouse
MEASUREMENT CONTEXT: mouse; 12.5 µg/mL, 24h; read-out: Cell viability on NCTC cells (%)
# viability at 24 h, 12.5 µg/mL per entry
QUANTITY MEASURED: viability at 24 h, 12.5 µg/mL (%)

MOLECULE: Cc1nn(CN(Cn2nc(C)c([N+](=O)[O-])c2C)c2ccc(Br)cc2)c(C)c1[N+](=O)[O-]
UNIT STRING: %
ENDPOINT VALUE: 106
--
MOLECULE: Cc1nn(CN(Cn2nc(C)c([N+](=O)[O-])c2C)c2ccc(F)cc2)c(C)c1[N+](=O)[O-]
UNIT STRING: %
ENDPOINT VALUE: 100
--
MOLECULE: C[C@@H]1CC[C@@]2(OC1)O[C@H]1C[C@H]3[C@@H]4CC=C5C[C@@H](O[C@@H]6O[C@H](CO)[C@@H](O[C@@H]7O[C@@H](C)[C@H](O)[C@@H](O)[C@H]7O)[C@H](O)[C@H]6O[C@@H]6O[C@@H](C)[C@H](O)[C@@H](O)[C@H]6O)CC[C@]5(C)[C@H]4CC[C@]3(C)[C@H]1[C@@H]2C [dioscin, reference compound]
UNIT STRING: %
ENDPOINT VALUE: 38.7
--
MOLECULE: Cc1nn(CN(Cn2nc(C)c([N+](=O)[O-])c2C)c2ccc(Cl)cc2)c(C)c1[N+](=O)[O-]
UNIT STRING: %
ENDPOINT VALUE: 98.8
--
MOLECULE: Cc1nn(CN(Cn2nc(C)c([N+](=O)[O-])c2C)c2cccc(Cl)c2)c(C)c1[N+](=O)[O-]
UNIT STRING: %
ENDPOINT VALUE: 88.3
--
MOLECULE: Cc1nn(CN(Cn2nc(C)c([N+](=O)[O-])c2C)c2ccc(I)cc2)c(C)c1[N+](=O)[O-]
UNIT STRING: %
ENDPOINT VALUE: 106

----------
METHOD SUMMARY: MTT cell viability / cytotoxicity on normal fibroblasts
Type: cell-based, mouse
MEASUREMENT CONTEXT: mouse, NCTC clone 929 (L929) mouse fibroblast cells, 3.1 µg/mL, 24h
# viability at 24 h, 3.1 µg/mL per entry

COMPOUND: Cc1nn(CNc2cccc(Cl)c2)c(C)c1[N+](=O)[O-] [4e]
viability at 24 h, 3.1 µg/mL, %: 93.1
//
COMPOUND: Cc1nn(CNc2ccc(F)cc2)c(C)c1[N+](=O)[O-] [4a]
viability at 24 h, 3.1 µg/mL, %: 99.6
//
COMPOUND: Cc1nn(CNc2ccc(Cl)cc2)c(C)c1[N+](=O)[O-] [4b]
viability at 24 h, 3.1 µg/mL, %: 100
//
COMPOUND: Cc1nn(CNc2ccc(I)cc2)c(C)c1[N+](=O)[O-] [4d]
viability at 24 h, 3.1 µg/mL, %: 99.9
//
COMPOUND: Cc1nn(CNc2ccccc2Cl)c(C)c1[N+](=O)[O-] [4f]
viability at 24 h, 3.1 µg/mL, %: 107
//
COMPOUND: Cc1nn(CNc2ccc(Br)cc2)c(C)c1[N+](=O)[O-] [4c]
viability at 24 h, 3.1 µg/mL, %: 99.2

----------
METHOD SUMMARY: MTT cell viability / cytotoxicity on normal fibroblasts
Type: cell-based, mouse
MEASUREMENT CONTEXT: mouse, NCTC clone 929 (L929) mouse fibroblast cells, 50 µg/mL, 24h
For each record, check the reported viability at 24 h, 50 µg/mL: if it is below 90% write yes, else write no.

SMILES STRUCTURE: Cc1nn(CNc2ccc(F)cc2)c(C)c1[N+](=O)[O-]
CATEGORY: yes

SMILES STRUCTURE: Cc1nn(CNc2ccc(Cl)cc2)c(C)c1[N+](=O)[O-]
CATEGORY: yes

SMILES STRUCTURE: Cc1nn(CNc2ccc(I)cc2)c(C)c1[N+](=O)[O-]
CATEGORY: no

SMILES STRUCTURE: Cc1nn(CNc2cccc(Cl)c2)c(C)c1[N+](=O)[O-]
CATEGORY: yes

----------
Tested on: HEp-2 epithelial tumor cells
METHOD SUMMARY: MTT cell viability / anti-tumor activity
MEASUREMENT CONTEXT: Homo sapiens, HEp-2, 24 h, read-out: Cell viability on Hep2 cells (%)

COMPOUND: Cc1nn(CN(Cn2nc(C)c([N+](=O)[O-])c2C)c2ccc(Br)cc2)c(C)c1[N+](=O)[O-] [5c]
viability at 50 µg/mL: 102%
--
COMPOUND: Cc1nn(CNc2ccc(Cl)cc2)c(C)c1[N+](=O)[O-] [4b]
viability at 50 µg/mL: 65.6%
--
COMPOUND: Cc1nn(CNc2ccc(F)cc2)c(C)c1[N+](=O)[O-] [4a]
viability at 50 µg/mL: 73.2%
--
COMPOUND: Cc1nn(CNc2cccc(Cl)c2)c(C)c1[N+](=O)[O-] [4e]
viability at 50 µg/mL: 56.5%
--
COMPOUND: Cc1nn(CNc2ccc(I)cc2)c(C)c1[N+](=O)[O-] [4d]
viability at 50 µg/mL: 106%
--
COMPOUND: Cc1nn(CNc2ccccc2Cl)c(C)c1[N+](=O)[O-] [4f]
viability at 50 µg/mL: 93.9%
--
COMPOUND: Cc1nn(CNc2ccc(Br)cc2)c(C)c1[N+](=O)[O-] [4c]
viability at 50 µg/mL: 92.6%
--
COMPOUND: Cc1nn(CN(Cn2nc(C)c([N+](=O)[O-])c2C)c2ccc(I)cc2)c(C)c1[N+](=O)[O-] [5d]
viability at 50 µg/mL: 89.9%
--
COMPOUND: Cc1nn(CN(Cn2nc(C)c([N+](=O)[O-])c2C)c2cccc(Cl)c2)c(C)c1[N+](=O)[O-] [5e]
viability at 50 µg/mL: 59.9%
--
COMPOUND: Cc1nn(CN(Cn2nc(C)c([N+](=O)[O-])c2C)c2ccc(Cl)cc2)c(C)c1[N+](=O)[O-] [5b]
viability at 50 µg/mL: 65.3%
--
COMPOUND: C[C@@H]1CC[C@@]2(OC1)O[C@H]1C[C@H]3[C@@H]4CC=C5C[C@@H](O[C@@H]6O[C@H](CO)[C@@H](O[C@@H]7O[C@@H](C)[C@H](O)[C@@H](O)[C@H]7O)[C@H](O)[C@H]6O[C@@H]6O[C@@H](C)[C@H](O)[C@@H](O)[C@H]6O)CC[C@]5(C)[C@H]4CC[C@]3(C)[C@H]1[C@@H]2C [dioscin, reference compound]
viability at 50 µg/mL: 11.5%
--
COMPOUND: Cc1nn(CN(Cn2nc(C)c([N+](=O)[O-])c2C)c2ccc(F)cc2)c(C)c1[N+](=O)[O-] [5a]
viability at 50 µg/mL: 57.2%
